Please go through the items and note down their IC50.
Biological target: IMP-1 (Serratia marcescens, UniProt P52699)
Sequence (P52699 whole entry, looked up): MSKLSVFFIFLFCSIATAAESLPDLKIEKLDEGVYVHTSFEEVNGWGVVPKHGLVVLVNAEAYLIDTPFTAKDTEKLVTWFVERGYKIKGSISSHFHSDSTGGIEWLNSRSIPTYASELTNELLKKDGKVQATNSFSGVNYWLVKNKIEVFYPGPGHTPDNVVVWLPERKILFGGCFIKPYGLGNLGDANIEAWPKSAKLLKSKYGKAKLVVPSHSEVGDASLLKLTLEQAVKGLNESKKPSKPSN
Experiment: biochemical
Assay type: biochemical
Conditions: IMP-1 enzyme, CCF2-FA substrate; read-out: IMP-1 IC50
Give bare numbers, in µM.

Look at each compound and report its IC50.
1. NS(=O)(=O)c1c(C(F)(F)F)ccc(-c2ccc(C3CCN(CC4CCNCC4)CC3)cc2)c1-c1nnn[nH]1 [Example 668]
2. NS(=O)(=O)c1c(C(F)(F)F)ccc([C@H]2CC[C@H](C3=NCCN3)CC2)c1-c1nnn[nH]1 [Example 506]
3. CC1(O)CN(c2ccc(-c3cccc(S(N)(=O)=O)c3-c3nnn[nH]3)cn2)C1 [Example 635]
4. NS(=O)(=O)c1c(C(F)(F)F)ccc(N2CCCC(CCO)C2)c1-c1nnn[nH]1 (stereo not drawn) [Example 660]

1: 0.0028; 2: 0.0357; 3: 0.0915; 4: 0.0104

Quick one: give me IC50 for each item below, same order please.
1. NC(=O)CCc1ccc(-c2cccc3sc(N)nc23)c(-c2nn[nH]n2)c1S(N)(=O)=O [Example 539]
2. NS(=O)(=O)c1c(C(F)(F)F)ccc(C2CCNc3ccccc32)c1-c1nnn[nH]1 (stereo not drawn) [Example 493]
3. N=C(N)N1CCC(Cc2ccc(-c3ccc(C4CNC4)cc3)c(-c3nn[nH]n3)c2S(N)(=O)=O)CC1 [Example 604]
4. NCC1CCC(N[C@H]2CC[C@H](c3ccc(C(F)(F)F)c(S(N)(=O)=O)c3-c3nnn[nH]3)CC2)CC1 (stereo partly drawn) [Example 704]

0.00762
0.0045
0.0417
0.0516

Please state, for each entry, its recorded IC50.
1. NS(=O)(=O)c1c(C(F)(F)F)ccc(-c2cccc3cnccc23)c1-c1nn[nH]n1 [Example 515]
2. NS(=O)(=O)c1c(C(F)(F)F)ccc(-c2ccc(C3CCCN3)cc2)c1-c1nnn[nH]1 (stereo not drawn) [Example 716]

1: 0.00368; 2: 0.00543
